// reported IC50 for each item listed
Study system: human PD-1 (Jurkat-PD-1 cells) / PE-labeled human PD-L1-Ig (Homo sapiens, UniProt Q15116)
Construct: expressed in transfected cells; host or cells: Jurkat cell line over-expressing human PD-1
Sequence (Q15116 25-288): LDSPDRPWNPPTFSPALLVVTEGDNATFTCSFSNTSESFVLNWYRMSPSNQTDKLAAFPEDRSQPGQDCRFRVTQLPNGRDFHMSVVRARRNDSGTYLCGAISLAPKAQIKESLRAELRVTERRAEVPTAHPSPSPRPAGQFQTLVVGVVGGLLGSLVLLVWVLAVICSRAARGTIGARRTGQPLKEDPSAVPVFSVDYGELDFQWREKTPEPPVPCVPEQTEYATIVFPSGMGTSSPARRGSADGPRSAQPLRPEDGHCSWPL
Assay protocol: Jurkat-PD-1 Cell Binding High-Content Screening Assay (CBA); Jurkat hPD1-PDL1 assay
Run conditions: Jurkat cell line over-expressing human PD-1; PE-labeled PD-L1-Ig 20 nM final; compound incubated 2 hours at 37° C.; read-out: Jurkat HPD1-PDL1 IC50
Positions of bridges follow the written chain, without caps; N, C: chain ends. Non-standard residues stand in square brackets, D forms with d. Residues, ends and D or L forms follow the SMILES beside them. Bip = N[C@@H](Cc1ccc(-c2ccccc2)cc1)C(=O)O; NMeF = CN[C@@H](Cc1ccccc1)C(=O)O; NMeA = CN[C@@H](C)C(=O)O; Sar = CNCC(=O)O
// return numeric value only (unit: nM, not printed)

INSERT INTO assay_data (compound, endpoint_result) VALUES
  ('CC(C)C[C@@H]1NC(=O)[C@H](Cc2c[nH]c3ccccc23)NC(=O)[C@H](CC(=O)O)NC(=O)[C@H](Cc2ccc(O)cc2)NC(=O)[C@H](C(C)C)NC(=O)CSC[C@@H](C(=O)NCC(N)=O)NC(=O)[C@H](CO)NC(=O)[C@H](C(C)C)NC(=O)[C@H](CC(C)C)NC(=O)[C@H](CC(N)=O)NC(=O)CN(C)C(=O)[C@H](C)N(C)C(=O)[C@H](C(C)C)NC(=O)[C@H](Cc2ccc(-c3ccccc3)cc2)NC1=O [Example 1154] ({CH2CO}-VYDWL[Bip]V[NMeA][Sar]NLVSCG-NH2; thioether N-14)', 790);

Okay, now this compound:
Req: Tell me reported IC50 for CC(C)C[C@@H]1NC(=O)[C@H](CCCNC(=N)N)NC(=O)[C@H](Cc2ccccc2)N(C)C(=O)[C@H](C)N(C)C(=O)[C@H](CCCNC(=N)N)NC(=O)[C@H](Cc2ccc(-c3ccccc3)cc2)NC(=O)[C@H](C(C)C)NC(=O)[C@H](Cc2c[nH]c3ccccc23)NC(=O)[C@H](CC(=O)O)NC(=O)[C@H](Cc2ccc(O)cc2)NC(=O)[C@H](CCC(N)=O)NC(=O)CSC[C@@H](C(=O)NCC(N)=O)NC(=O)[C@H]([C@@H](C)O)NC(=O)[C@H](C(C)C)NC1=O [Example 1311] ({CH2CO}-QYDWV[Bip]R[NMeA][NMeF]RLVTCG-NH2; thioether N-14) , tested with human PD-1 (Jurkat-PD-1 cells) / PE-labeled human PD-L1-Ig (Homo sapiens, UniProt Q15116).
Resp: 750

###

Study system: human PD-1 (Jurkat-PD-1 cells) / PE-labeled human PD-L1-Ig (Homo sapiens)
Construct: expressed in transfected cells; host or cells: Jurkat cell line over-expressing human PD-1
Assay protocol: Jurkat-PD-1 Cell Binding High-Content Screening Assay (CBA); Jurkat hPD1-PDL1 assay
Run conditions: Jurkat cell line over-expressing human PD-1; PE-labeled PD-L1-Ig 20 nM final; compound incubated 2 hours at 37° C.; read-out: Jurkat HPD1-PDL1 IC50
Positions of bridges follow the written chain, without caps; N, C: chain ends. Non-standard residues stand in square brackets, D forms with d. Residues, ends and D or L forms follow the SMILES beside them. Bip = N[C@@H](Cc1ccc(-c2ccccc2)cc1)C(=O)O; NMeR = CN[C@@H](CCCNC(=N)N)C(=O)O; Abu = CC[C@H](N)C(=O)O; Sar = CNCC(=O)O
Measurement type: pIC50
When answering, recall that pIC50 equals minus log10 of the concentration in mol/L, and write that number alone.

Req: Query: pIC50; subject: CC[C@@H]1NC(=O)[C@H](Cc2ccc(-c3ccccc3)cc2)NC(=O)[C@H](CC(C)C)NC(=O)[C@H](Cc2c[nH]c3ccccc23)NC(=O)[C@H](CC(=O)O)NC(=O)[C@H](Cc2ccc(O)cc2)NC(=O)[C@H](Cc2ccccc2)NC(=O)CSC[C@@H](C(=O)NCC(N)=O)NC(=O)[C@H](CO)NC(=O)[C@H](C(C)C)NC(=O)[C@H](CC(C)C)NC(=O)[C@H](CCCNC(=N)N)NC(=O)CN(C)C(=O)[C@H](CCCNC(=N)N)N(C)C1=O [Example 1234] ({CH2CO}-FYDWL[Bip][Abu][NMeR][Sar]RLVSCG-NH2; thioether N-14)
Resp: 6.54

###

Study system: human PD-1 (Jurkat-PD-1 cells) / PE-labeled human PD-L1-Ig (Homo sapiens, UniProt Q15116)
Construct: expressed in transfected cells; host or cells: Jurkat cell line over-expressing human PD-1
Assay protocol: Jurkat-PD-1 Cell Binding High-Content Screening Assay (CBA); Jurkat hPD1-PDL1 assay
Run conditions: Jurkat cell line over-expressing human PD-1; PE-labeled PD-L1-Ig 20 nM final; compound incubated 2 hours at 37° C.; read-out: Jurkat HPD1-PDL1 IC50
Source text: The ability of the compounds of formula (I) to bind to PD-1 was investigated using a Jurkat-PD-1 Cell Binding High-Content Screening Assay. Jurkat-PD-1 Cell Binding High-Content Screening Assay (CBA) Phycoerythrin (PE) was covalently linked to the Ig epitope tag of human PD-L1-Ig and fluorescently-labeled PD-L1-Ig was used for binding studies with a Jurkat cell line over-expressing human PD-1 (Jurkat-PD-1). […]
Positions of bridges follow the written chain, without caps; N, C: chain ends. Non-standard residues stand in square brackets, D forms with d. Residues, ends and D or L forms follow the SMILES beside them. ξ: configuration not given here. Bip = N[C@@H](Cc1ccc(-c2ccccc2)cc1)C(=O)O; NMeF = CN[C@@H](Cc1ccccc1)C(=O)O; ξR = N=C(N)NCCCC(N)C(=O)O; NMeA = CN[C@@H](C)C(=O)O
// reported pIC50 for each item listed
The value called pIC50 is obtained by taking minus log10 of the concentration in mol/L.

INSERT INTO results (molecule, study_system, endpoint_result) VALUES
  ('CC(C)C[C@@H]1NC(=O)C(CCCNC(=N)N)NC(=O)[C@H](Cc2ccccc2)N(C)C(=O)[C@H](CCCCN)NC(=O)[C@H](CCCNC(=N)N)NC(=O)[C@H](Cc2ccc(-c3ccccc3)cc2)NC(=O)[C@H](C(C)C)NC(=O)[C@H](Cc2c[nH]c3ccccc23)NC(=O)[C@H](CC(=O)O)NC(=O)[C@H](Cc2ccc(O)cc2)NC(=O)[C@H](Cc2ccccc2)NC(=O)CSC[C@@H](C(=O)NCC(N)=O)NC(=O)[C@H](CO)NC(=O)[C@H](C(C)C)NC1=O (some centres unmarked) [Example 1216] ({CH2CO}-FYDWV[Bip]RK[NMeF][ξR]LVSCG-NH2; thioether N-14)', 'human PD-1 (Jurkat-PD-1 cells) / PE-labeled human PD-L1-Ig (Homo sapiens, UniProt Q15116)', 7.05);

# context switch: different molecule, same pIC50
Req: Item CC(C)C[C@@H]1NC(=O)[C@H](CCCNC(=N)N)NC(=O)[C@H](Cc2ccccc2)N(C)C(=O)[C@H](C)N(C)C(=O)[C@H](CCCNC(=N)N)NC(=O)[C@H](Cc2ccc(-c3ccccc3)cc2)NC(=O)[C@H](C(C)C)NC(=O)[C@H](Cc2c[nH]c3ccccc23)NC(=O)[C@H](CC(=O)O)NC(=O)[C@H](Cc2ccc(O)cc2)NC(=O)[C@H](CCC(N)=O)NC(=O)CSC[C@@H](C(=O)NCC(N)=O)NC(=O)[C@H](CO)NC(=O)[C@H](C(C)C)NC1=O [Example 1057] ({CH2CO}-QYDWV[Bip]R[NMeA][NMeF]RLVSCG-NH2; thioether N-14) has what recorded pIC50?
Resp: 6.89

###

Listed here: items and their measured IC50.
Study system: human PD-1 (Jurkat-PD-1 cells) / PE-labeled human PD-L1-Ig (Homo sapiens)
Construct: expressed in transfected cells; host or cells: Jurkat cell line over-expressing human PD-1
Assay protocol: Jurkat-PD-1 Cell Binding High-Content Screening Assay (CBA); Jurkat hPD1-PDL1 assay
Run conditions: Jurkat cell line over-expressing human PD-1; PE-labeled PD-L1-Ig 20 nM final; compound incubated 2 hours at 37° C.; read-out: Jurkat HPD1-PDL1 IC50
Positions of bridges follow the written chain, without caps; N, C: chain ends. Non-standard residues stand in square brackets, D forms with d. Residues, ends and D or L forms follow the SMILES beside them. ξ: configuration not given here. Bip = N[C@@H](Cc1ccc(-c2ccccc2)cc1)C(=O)O; NMeF = CN[C@@H](Cc1ccccc1)C(=O)O; 3Pal = N[C@@H](Cc1cccnc1)C(=O)O; dHyp = O=C(O)[C@H]1C[C@H](O)CN1; NMeA = CN[C@@H](C)C(=O)O; Dab = NCC[C@H](N)C(=O)O; ξV = CC(C)C(N)C(=O)O; Sar = CNCC(=O)O
Field: numeric (nM). Do not append units.

INSERT INTO results (compound, measurement_type, endpoint_result) VALUES
  ('CC(C)C[C@@H]1NC(=O)[C@H](Cc2c[nH]c3ccccc23)NC(=O)[C@H](CC(=O)O)NC(=O)[C@H](Cc2cccnc2)NC(=O)[C@H](Cc2ccccc2)NC(=O)CSC[C@@H](C(=O)N[C@@H](C)C(N)=O)NC(=O)[C@H](CO)NC(=O)[C@H](C(C)C)NC(=O)[C@H](CC(C)C)NC(=O)[C@H](CC(N)=O)NC(=O)CN(C)C(=O)[C@H](C)N(C)C(=O)[C@H](C(C)C)NC(=O)[C@H](Cc2ccc(-c3ccccc3)cc2)NC1=O [Example 1080] ({CH2CO}-F[3Pal]DWL[Bip]V[NMeA][Sar]NLVSCA-NH2; thioether N-14)', 'IC50', 230);

Req: Find the recorded IC50 belonging to CC(C)C[C@@H]1NC(=O)[C@H](Cc2c[nH]c3ccccc23)NC(=O)[C@H](CC(=O)O)NC(=O)[C@H](Cc2ccc(O)cc2)NC(=O)[C@H](Cc2ccccc2)NC(=O)CSC[C@@H](C(=O)N[C@@H](C)C(N)=O)NC(=O)[C@H](CO)NC(=O)[C@H](C(C)C)NC(=O)[C@H](CC(C)C)NC(=O)[C@H](CC(N)=O)NC(=O)CN(C)C(=O)[C@H]2C[C@H](O)CN2C(=O)C(C(C)C)NC(=O)[C@H](Cc2ccc(-c3ccccc3)cc2)NC1=O (some centres unmarked) [Example 1003] ({CH2CO}-FYDWL[Bip][ξV][dHyp][Sar]NLVSCA-NH2; thioether N-14) and report it.
Resp: 760

Req: I am curious: what IC50 value has been reported for CC(C)C[C@@H]1NC(=O)CSC[C@@H](C(=O)N[C@@H](C)C(N)=O)NC(=O)[C@H](CO)NC(=O)[C@H](C(C)C)NC(=O)[C@H](CC(C)C)NC(=O)[C@H](CCN)NC(=O)[C@H](Cc2ccccc2)N(C)C(=O)[C@H](C)N(C)C(=O)[C@H](CCCNC(=N)N)NC(=O)[C@H](Cc2ccc(-c3ccccc3)cc2)NC(=O)[C@H](C(C)C)NC(=O)[C@H](Cc2c[nH]c3ccccc23)NC(=O)[C@H](CC(=O)O)NC(=O)[C@H](Cc2ccc(O)cc2)NC1=O [Example 1305] ({CH2CO}-LYDWV[Bip]R[NMeA][NMeF][Dab]LVSCA-NH2; thioether N-14) ?
Resp: 60

Req: Look up IC50: CC(C)C[C@@H]1NC(=O)[C@H](Cc2c[nH]c3ccccc23)NC(=O)[C@H](CC(=O)O)NC(=O)[C@H](Cc2ccc(O)cc2)NC(=O)[C@H](Cc2ccccc2)NC(=O)CSC[C@@H](C(=O)N[C@@H](C)C(N)=O)NC(=O)[C@H](Cc2cnc[nH]2)NC(=O)[C@H](C(C)C)NC(=O)[C@H](CC(C)C)NC(=O)[C@H](CC(N)=O)NC(=O)CN(C)C(=O)[C@H](C)N(C)C(=O)[C@H](C(C)C)NC(=O)[C@H](Cc2ccc(-c3ccccc3)cc2)NC1=O [Example 1127] ({CH2CO}-FYDWL[Bip]V[NMeA][Sar]NLVHCA-NH2; thioether N-14)
Resp: 480
